What log2 ratio of Biotin-Ahx-Ub-VS probe labelling was measured for each of the following?
# tested on: OTUD6B (UniProt Q8N6M0)
# Sequence (Q8N6M0 whole entry, the tested form may be a part): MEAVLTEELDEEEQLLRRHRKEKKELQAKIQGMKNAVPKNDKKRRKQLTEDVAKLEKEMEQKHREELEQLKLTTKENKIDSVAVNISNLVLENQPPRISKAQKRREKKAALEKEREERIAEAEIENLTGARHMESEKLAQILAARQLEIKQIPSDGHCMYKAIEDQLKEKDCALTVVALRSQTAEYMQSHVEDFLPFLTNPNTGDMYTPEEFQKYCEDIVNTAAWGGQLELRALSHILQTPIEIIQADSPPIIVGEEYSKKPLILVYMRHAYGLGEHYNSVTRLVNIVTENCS
# assay remarks: log2 ratio of Biotin-Ahx-Ub-VS probe labelling (fragment/DMSO); higher = less target engagement (more negative = stronger competition), active = hit call of the paper (q ≤ 0.05, log2 ratio ≤ -1)
# experimental parameters: compound concentration: 200 uM; treatment time: 3 h
Give bare numbers.

Items follow; give log2 ratio of Biotin-Ahx-Ub-VS probe labelling for each.
1. O=C(CCl)Nc1cc(Cl)ccc1C(=O)O
2. Cc1ccc(C)c(NC(=O)CCl)c1
3. Cc1cccc2nc(CCNC(=O)CCl)cn12.Cl
4. O=C(CCl)N1CCC(OCc2ccccc2F)CC1

Reply text:
1: 0.133; 2: -0.56; 3: -0.459; 4: 0.102
